The reported numbers originate from ChEMBL document CHEMBL1773055.

protocol_notes: Selectivity index, ratio of IC50 for […] cells to IC50 for Plasmodium falciparum D6
Assay type: toxicity, cell-based
experimental_parameters: read-out: Ratio IC50
So I've got a bunch of compounds here, and I need their selectivity ratio values.
One number for each entry.

Check out these entries, answers already filled in.
Entry "Cc1cc(NCCN2CCOCC2)c2ccc3c(ccc4c(NCCN5CCOCC5)cc(C)nc43)c2n1.Cl" needs its selectivity ratio filled in; supply it.
1720

Entry "Cc1cc(NCCCN2CCOCC2)c2ccc3c(ccc4c(NCCCN5CCOCC5)cc(C)nc43)c2n1.Cl" needs its selectivity ratio filled in; supply it.
1430

Now for the compound whose selectivity ratio we want.
Entry "CCN(CC)CCNc1cc(C)nc2c1ccc1c2ccc2c(NCCN(CC)CC)cc(C)nc21.Cl" needs its selectivity ratio filled in; supply it.
1560

---

So I've got a bunch of compounds here, and I need their selectivity ratio values.
protocol_notes: Selectivity index, ratio of IC90 for […] cells to IC90 for Plasmodium falciparum W2
Format: toxicity, cell-based
Give bare numbers.

Check out these entries, answers already filled in.
Entry "Cc1cc(NCCCN2CCOCC2)c2ccc3c(ccc4c(NCCCN5CCOCC5)cc(C)nc43)c2n1.Cl" needs its selectivity ratio filled in; supply it.
1730

Entry "Cc1cc(NCCN2CCOCC2)c2ccc3c(ccc4c(NCCN5CCOCC5)cc(C)nc43)c2n1.Cl" needs its selectivity ratio filled in; supply it.
2600

Now for the compound whose selectivity ratio we want.
Entry "CCN(CC)CCNc1cc(C)nc2c1ccc1c2ccc2c(NCCN(CC)CC)cc(C)nc21.Cl" needs its selectivity ratio filled in; supply it.
1060

---

Tested on: RAW264.7
protocol_notes: Cytotoxicity against rat RAW264.7 cells by MTT assay
Format: cell-based
experimental_parameters: Mus musculus, RAW264.7
measured_quantity: IC50
Form entry: enter the amount, then its unit.

Entry "Cc1cc(NCCCN2CCOCC2)c2ccc3c(ccc4c(NCCCN5CCOCC5)cc(C)nc43)c2n1.Cl" needs its IC50 filled in; supply it.
7.48 µM

Entry "CCN(CC)CCNc1cc(C)nc2c1ccc1c2ccc2c(NCCN(CC)CC)cc(C)nc21.Cl" needs its IC50 filled in; supply it.
9.35 µM

Now for the molecule whose IC50 we want.
Entry "Cc1cc(NCCN2CCOCC2)c2ccc3c(ccc4c(NCCN5CCOCC5)cc(C)nc43)c2n1.Cl" needs its IC50 filled in; supply it.
10.2 µM

---

System: Plasmodium falciparum
protocol_notes: Resistance index, ratio of IC50 for Plasmodium falciparum C235 to IC50 for Plasmodium falciparum D6
Format: functional
Parameter threshold = 2. Response is Satisfied when Ratio IC50 meets or exceeds it, else Not satisfied.

The following compounds have reported results that may help.
For this compound, is measured Ratio IC50 2 or higher? "Cc1cc(NCCCN2CCCCC2)c2ccc3c(ccc4c(NCCCN5CCCCC5)cc(C)nc43)c2n1.Cl"
Satisfied

For this compound, is measured Ratio IC50 2 or higher? "CCN(CC)CCNc1cc(C)nc2c1ccc1c2ccc2c(NCCN(CC)CC)cc(C)nc21.Cl"
Not satisfied

For this compound, is measured Ratio IC50 2 or higher? "Cc1cc(NCCCN2CCCC2)c2ccc3c(ccc4c(NCCCN5CCCC5)cc(C)nc43)c2n1.Cl"
Satisfied

For this compound, is measured Ratio IC50 2 or higher? "Cc1cc(NCCN2CCCC2)c2ccc3c(ccc4c(NCCN5CCCC5)cc(C)nc43)c2n1.Cl"
Not satisfied

Continuing:
For this compound, is measured Ratio IC50 2 or higher? "Cc1cc(NCCCN)c2ccc3c(ccc4c(NCCCN)cc(C)nc43)c2n1.Cl"
Satisfied

For this compound, is measured Ratio IC50 2 or higher? "CCN(CC)CCCNc1cc(C)nc2c1ccc1c2ccc2c(NCCCN(CC)CC)cc(C)nc21.Cl"
Satisfied

For this compound, is measured Ratio IC50 2 or higher? "Cc1cc(NCCN2CCOCC2)c2ccc3c(ccc4c(NCCN5CCOCC5)cc(C)nc43)c2n1.Cl"
Not satisfied

For this compound, is measured Ratio IC50 2 or higher? "Cc1cc(NCCN)c2ccc3c(ccc4c(NCCN)cc(C)nc43)c2n1.Cl"
Satisfied

For this compound, is measured Ratio IC50 2 or higher? "Cc1cc(NCCCN2CCOCC2)c2ccc3c(ccc4c(NCCCN5CCOCC5)cc(C)nc43)c2n1.Cl"
Not satisfied
